From: patent US20250092108A1

Target: T1, human CD25 (IL-2Rα) (human, UniProt P01589 22-213)
T1 chain: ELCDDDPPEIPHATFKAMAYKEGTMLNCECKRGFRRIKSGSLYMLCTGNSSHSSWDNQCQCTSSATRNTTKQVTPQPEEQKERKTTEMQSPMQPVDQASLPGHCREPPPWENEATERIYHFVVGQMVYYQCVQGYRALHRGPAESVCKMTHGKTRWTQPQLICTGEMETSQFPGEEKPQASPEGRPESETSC
Experiment: Biacore; pH 6.0
pKd: −log10 of the molar value.
Measured endpoint: pKd

Consider the reported pKd for these binders:
{"columns": ["Binder", "Measured endpoint", "Recorded result"],
 "data": [
  ["14202 R38Q T41S C125S (protein) APTSSSTKKTQLQLEHLLLDLQMILNGINNYKNPKLTQMLSFKFYMPKKATELKHLQCLEEELKPLEEVLNLAQSKNFHLRPRDLISNINVIVLELKGSETTFMCEYADETATIVEFLNRWITFSQSIISTLT", "pKd", 5.77],
  ["14193 R38Q T41R C125S (protein) APTSSSTKKTQLQLEHLLLDLQMILNGINNYKNPKLTQMLRFKFYMPKKATELKHLQCLEEELKPLEEVLNLAQSKNFHLRPRDLISNINVIVLELKGSETTFMCEYADETATIVEFLNRWITFSQSIISTLT", "pKd", 6.27],
  ["14192 R38E T41K C125S (protein) APTSSSTKKTQLQLEHLLLDLQMILNGINNYKNPKLTEMLKFKFYMPKKATELKHLQCLEEELKPLEEVLNLAQSKNFHLRPRDLISNINVIVLELKGSETTFMCEYADETATIVEFLNRWITFSQSIISTLT", "pKd", 7.51],
  ["14194 R38N T41Q C125S (protein) APTSSSTKKTQLQLEHLLLDLQMILNGINNYKNPKLTNMLQFKFYMPKKATELKHLQCLEEELKPLEEVLNLAQSKNFHLRPRDLISNINVIVLELKGSETTFMCEYADETATIVEFLNRWITFSQSIISTLT", "pKd", 7.07]
]}

(P) 14190 R38Q T41K C125S (protein) APTSSSTKKTQLQLEHLLLDLQMILNGINNYKNPKLTQMLKFKFYMPKKATELKHLQCLEEELKPLEEVLNLAQSKNFHLRPRDLISNINVIVLELKGSETTFMCEYADETATIVEFLNRWITFSQSIISTLT
(Q) 14191 R38Q T41Q C125S (protein) APTSSSTKKTQLQLEHLLLDLQMILNGINNYKNPKLTQMLQFKFYMPKKATELKHLQCLEEELKPLEEVLNLAQSKNFHLRPRDLISNINVIVLELKGSETTFMCEYADETATIVEFLNRWITFSQSIISTLT
*Q* Select the item whose pKd value is smaller, choosing between P and Q . Respond using the label that marks the chosen record.
*A* Q
(Q: 5.61, P: 6.31)
